Test system: MT-2
experiment.summary: MT-2 activity
Assay type: cell-based
test.conditions: Homo sapiens, MT2
Measured pIC50 of individual entries
Notebook: values listed as pIC50 are -log10 of the concentration (mol/L).

mol.smiles | pIC50
COc1ccc(-c2ccc(CNC(=O)COCCOCCOCCOCCn3cc(COCCOCCOCCOCCNc4ccc([N+](=O)[O-])cc4[N+](=O)[O-])nn3)o2)c2[nH]cc(C(=O)C(=O)N3CCN(C(=O)c4cccnc4)CC3)c12 | 5.89
COc1ccc(-c2ccc(CNC(=O)COCCOCCOCCOCCn3cc(COCCOCCOCCOCCNc4ccc([N+](=O)[O-])cc4[N+](=O)[O-])nn3)o2)c2[nH]cc(C(=O)C(=O)N3CCN(C(=O)c4ccc(O)cc4)CC3)c12 | 7.05

Would you kindly look at the next entry?
Ask: Could you share which pIC50 value was measured for `COc1ccc(-c2ccc(CNC(=O)COCCOCCOCCOCCn3cc(COCCOCCOCCOCCNc4ccc([N+](=O)[O-])cc4[N+](=O)[O-])nn3)o2)c2[nH]cc(C(=O)C(=O)N3CCN(C(=O)c4cc(O)cc(O)c4)CC3)c12` ?
Reply: 6.64

* * *

Measured IC50 of individual entries
study.target: gp120-CD4 interaction (Human immunodeficiency virus type 1 group M subtype B, UniProt P03375)
experiment.summary: biochemical
State the answer as a number, implicitly in nM.

Examples from the recorded data:
mol.smiles | assay.value
CCc1ccc(C(=O)N2CCN(C(=O)C(=O)c3c[nH]c4c(-c5ccc(CNC(=O)COCCOCCOCCOCCn6cc(COCCOCCOCCOCCNc7ccc([N+](=O)[O-])cc7[N+](=O)[O-])nn6)o5)ccc(OC)c34)CC2)cc1 | 469
COc1ccc(-c2ccc(CNC(=O)COCCOCCOCCOCCn3cc(COCCOCCOCCOCCNc4ccc([N+](=O)[O-])cc4[N+](=O)[O-])nn3)o2)c2[nH]cc(C(=O)C(=O)N3CCN(C(=O)c4cccnc4)CC3)c12 | 3700
COc1ccc(-c2ccc(CNC(=O)COCCOCCOCCOCCn3cc(COCCOCCOCCOCCNc4ccc([N+](=O)[O-])cc4[N+](=O)[O-])nn3)o2)c2[nH]cc(C(=O)C(=O)N3CCN(C(=O)c4ccc(C(C)C)cc4)CC3)c12 | 953
COc1ccc(-c2ccc(CNC(=O)COCCOCCOCCOCCn3cc(COCCOCCOCCOCCNc4ccc([N+](=O)[O-])cc4[N+](=O)[O-])nn3)o2)c2[nH]cc(C(=O)C(=O)N3CCN(C(=O)c4ccccn4)CC3)c12 | 620

Would you kindly look at the next entry?
Ask: Could you share which IC50 value was measured for `COc1ccc(-c2ccc(CNC(=O)COCCOCCOCCOCCn3cc(COCCOCCOCCOCCNc4ccc([N+](=O)[O-])cc4[N+](=O)[O-])nn3)o2)c2[nH]cc(C(=O)C(=O)N3CCN(C(=O)c4ccccc4C)CC3)c12` ?
Reply: 5140

* * *

study.target: gp120-CD4 interaction (Human immunodeficiency virus type 1 group M subtype B)
experiment.summary: biochemical
Measured IC50 of individual entries
State the answer as a number, implicitly in nM.

Examples from the recorded data:
mol.smiles | IC50 [nM]
COc1ccc(-c2ccc(CNC(=O)COCCOCCOCCOCCn3cc(COCCOCCOCCOCCNc4ccc([N+](=O)[O-])cc4[N+](=O)[O-])nn3)o2)c2[nH]cc(C(=O)C(=O)N3CCN(C(=O)c4cc(O)cc(O)c4)CC3)c12 | 745
COc1ccc(-c2ccc(CNC(=O)COCCOCCOCCOCCn3cc(COCCOCCOCCOCCNc4ccc([N+](=O)[O-])cc4[N+](=O)[O-])nn3)o2)c2[nH]cc(C(=O)C(=O)N3CCN(C(=O)c4cccc(C)c4)CC3)c12 | 1360

Would you kindly look at the next entry?
Ask: Could you share which IC50 value was measured for `COc1ccc(-c2ccc(CNC(=O)COCCOCCOCCOCCn3cc(COCCOCCOCCOCCNc4ccc([N+](=O)[O-])cc4[N+](=O)[O-])nn3)o2)c2[nH]cc(C(=O)C(=O)N3CCN(C(=O)c4ccc(O)cc4)CC3)c12` ?
Reply: 239
